Read-out: Cytochrome P450 3A7 (Homo sapiens)
RUN DESCRIPTION: LTEA_HepaRG_CYP3A7: Life Technologies and Expression Analysis (LTEA) Assay for CYP3A7 using HepaRG (AID 2283492)
STUDY CONDITIONS: mRNA level, 48 h; actives raise or lower the signal
Activity calls are given as the source filed them. Rule for the calls: active = hit-call score of the fitted dose curve at least 0.9, where 1 is the maximum; inactive = score below 0.9.
VALUE TYPE: outcome

>>> print(df.to_string())
                            smiles_notation  value_type  readout_value
0                        O=c1[nH]sc2ccccc12     outcome       inactive
1                           CCCCCCCCCC(=O)O     outcome       inactive
2        O=C(OCCCCCCOC(=O)c1ccccc1)c1ccccc1     outcome       inactive
3  CCCCOC(=O)CC(CC(=O)OCCCC)(OC(C)=O)C(=O)OCCCC     outcome       inactive

###

RUN DESCRIPTION: BSK_hDFCGF_SRB: Viability Assessment in the BioMAP Diversity Plus: hDFCGF Assay (AID 2283061);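 note: cells exposed to compound for 24 h before the read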
STUDY CONDITIONS: primary human foreskin fibroblasts
Calls of active or inactive are those of the source. How the source made its calls: active means hit-call score of the fitted dose curve at least 0.9, where 1 is the maximum; inactive means score below 0.9.
Labels: Y = active, N = inactive

SMILES NOTATION	GROUP
OCCO	N
CCN(Cc1cccnc1)C(=O)c1cccc(Cl)c1[C@]1(C)C(=O)N(Cc2ccc(OC)cc2OC)c2ccc(Cl)cc21	N
Cc1cccc2ccccc12	N
CCCCCCCCCCCCO	Y
Cc1cc2c(cc1C(F)(F)F)N(C(=O)Nc1ccc(Oc3cccnc3C)nc1)CC2	Y
CC(C)(C)c1csc(-c2cc3cc(OCc4ccccc4CC(=O)O)ccc3o2)n1	Y
CN(C[C@@H](CC[N+]12CCC(C3CCCCC3)(CC1)CC2)c1ccc(Cl)c(Cl)c1)C(=O)c1cc(C(F)(F)F)cc(C(F)(F)F)c1	Y
O=C(O)Cn1c(=O)n(Cc2ccc(Br)cc2F)c(=O)c2ccc(Cl)cc21	N
O=c1c(-c2ccc(O)cc2)coc2cc(O)cc(O)c12	Y
CO[C@H]1/C=C/O[C@@]2(C)Oc3c(C)c(O)c4c(O)c(c(/C=N/N5CCN(C)CC5)c(O)c4c3C2=O)NC(=O)/C(C)=C\C=C\[C@H](C)[C@H](O)[C@@H](C)[C@@H](O)[C@@H](C)[C@H](OC(C)=O)[C@@H]1C	N
Cc1ccc(C(C)C)cc1	N

###

Read-out: Intercellular Adhesion Molecule 1 (ICAM1), ICAM1 (gene 3383)
RUN DESCRIPTION: BSK_KF3CT_ICAM1: BioMAP Diversity Plus: KF3CT Assay for Intercellular Adhesion Molecule 1 (ICAM1) Biomarker Activity (AID 2283067)
STUDY CONDITIONS: primary human keratinocytes with fibroblasts; actives raise or lower the signal
Calls of active or inactive are those of the source. Rule for the calls: active = hit-call score of the fitted dose curve at least 0.9, where 1 is the maximum; inactive = score below 0.9.
Outcome codes: active, inactive

>>> print(df.to_string())
                                    compound     group
 0  CN(C)c1ccc(C(=C2C=CC(=[N+](C)C)C=C2)c2ccc(N(C)C)cc2)cc1    active
 1      O=c1c(-c2ccc(O)cc2)coc2cc(O)cc(O)c12  inactive
 2  CC(O)CC(C)(C)O (configuration not stated)  inactive
 3              CC1=CC(=O)/C(=C(/C)O)C(=O)O1  inactive
 4                                 Oc1ccccc1  inactive
 5  Cc1ccc2oc(CN(Cc3ccccc3)C(=O)Nc3c(F)cc(F)cc3F)c(-c3ccc(Cl)cc3)c2c1  inactive
 6  CCCCOC(=O)CC(CC(=O)OCCCC)(OC(C)=O)C(=O)OCCCC  inactive
 7                          CCCC(=O)OCCC(C)C  inactive
 8  O=C1c2ccccc2C(=O)N1CCc1noc(-c2ccc(CN3CCCCCC3)s2)n1  inactive
 9  CC1(C)NC(=O)N(c2ccc([N+](=O)[O-])c(C(F)(F)F)c2)C1=O  inactive
10  CC(C)(c1cc(Br)c(O)c(Br)c1)c1cc(Br)c(O)c(Br)c1    active
11                        Cc1ncc(CO)c(CO)c1O  inactive

###

Read-out: Cytochrome P450 7A1 (Homo sapiens) (UniProt P22680)
RUN DESCRIPTION: LTEA_HepaRG_CYP7A1: Life Technologies and Expression Analysis (LTEA) Assay for Cytochrome P450 7A1 (CYP7A1) using HepaRG (AID 2283496)
STUDY CONDITIONS: mRNA level, 48 h; actives raise or lower the signal
Calls of active or inactive are those of the source. Rule for the calls: active = hit-call score of the fitted dose curve at least 0.9, where 1 is the maximum; inactive = score below 0.9.
Possible outcomes: TRUE for active, FALSE for inactive

In [3]: df
Out[3]:
                                    molecule  group
 0  Cc1occc1C(=O)Nc1ccc(C(=O)N2CCC(F)(F)/C(=C\C(=O)N3CCC(N4CCCCC4)CC3)c3ccccc32)cc1   TRUE
 1  COc1cccc([C@H](O)C2CCN(CCc3ccc(F)cc3)CC2)c1OC  FALSE
 2  O=C(O)c1ccccc1-n1cc(C(=O)O)c(=O)c2cc(Nc3c(F)cc(F)cc3Cl)c(Cl)cc21  FALSE
 3                          O=C=NCCCCCCN=C=O  FALSE
 4         CC(O)CC(C)(C)O (stereo not drawn)  FALSE
 5  CN1C(=O)N(c2ccccc2Br)Cc2cnc(Nc3ccc4c(c3)OCC(CO)O4)nc21 (stereo not drawn)   TRUE
 6                        Cc1ncc(CO)c(CO)c1O  FALSE
 7  CC(C)(c1cc(Br)c(O)c(Br)c1)c1cc(Br)c(O)c(Br)c1  FALSE
 8                           CCCCCCCCCC(=O)O  FALSE
 9  NC(=O)c1nc(-c2cccc(-c3cc(F)ccc3OCC(F)(F)C(F)(F)F)c2)n[nH]1  FALSE
10  CCN(CC)C(=O)c1cc(S(=O)(=O)Cc2ccccc2)c(N2CCC(c3ccccc3)CC2)cc1N(CC)CCN(C)C  FALSE
11           O=C1O[C@H]([C@@H](O)CO)C(O)=C1O  FALSE
12       O=C(Nc1ccc(Cl)cc1)Nc1ccc(Cl)c(Cl)c1   TRUE
13  CC(=O)N1CCN(c2ccc(OC[C@H]3CO[C@](Cn4ccnc4)(c4ccc(Cl)cc4Cl)O3)cc2)CC1   TRUE
14                   CCCCCCCCCCCC[N+](C)(C)C   TRUE
15                 CCCCCCCC[Si](OCC)(OCC)OCC  FALSE
16           CCCCCCCCOC(=O)c1cc(O)c(O)c(O)c1  FALSE
17                           Oc1ccc2ccccc2c1  FALSE

###

Read-out: Monocyte Chemoattractant Protein-1 (MCP1), CCL2 (gene 6347)
RUN DESCRIPTION: BSK_LPS_MCP1: BioMAP Diversity Plus: LPS Assay for Monocyte Chemoattractant Protein-1 (MCP1) Biomarker Activity (AID 2283081)
STUDY CONDITIONS: primary human HUVEC with PBMC; actives raise or lower the signal
Calls of active or inactive are those of the source. Rule for the calls: active = hit-call score of the fitted dose curve at least 0.9, where 1 is the maximum; inactive = score below 0.9.
Outcomes: class 1 for active, class 0 for inactive

                                    compound    group
 0  CC1(C)NC(=O)N(c2ccc([N+](=O)[O-])c(C(F)(F)F)c2)C1=O  class 0
 1                  CN1C(=O)CC[C@H]1c1cccnc1  class 0
 2                          O=c1ccc2ccccc2o1  class 0
 3  Cc1occc1C(=O)Nc1ccc(C(=O)N2CCC(F)(F)/C(=C\C(=O)N3CCC(N4CCCCC4)CC3)c3ccccc32)cc1  class 0
 4                        Cc1ncc(CO)c(CO)c1O  class 0
 5  CCN(Cc1cccc(S(=O)(=O)O)c1)c1ccc(C(=C2C=CC(=[N+](CC)Cc3cccc(S(=O)(=O)O)c3)C=C2)c2ccccc2S(=O)(=O)[O-])cc1  class 0
 6                                 O=CCCCC=O  class 0
 7  CN1C(=O)N(c2ccccc2Br)Cc2cnc(Nc3ccc4c(c3)OCC(CO)O4)nc21 (stereo not given)  class 1
 8                           CCCCCCCCCC(=O)O  class 0
 9  C[C@]12CC[C@@H]3c4ccc(O)cc4CC[C@H]3[C@@H]1CC[C@H]2O  class 1
10  CCN(CC)C(=O)c1cc(S(=O)(=O)Cc2ccccc2)c(N2CCC(c3ccccc3)CC2)cc1N(CC)CCN(C)C  class 1
11  CC(=O)N1CCN(c2ccc(OC[C@H]3CO[C@](Cn4ccnc4)(c4ccc(Cl)cc4Cl)O3)cc2)CC1  class 1
12  CC[C@H](NC(=O)c1cc(F)ccc1NS(=O)(=O)c1cccc2cccnc12)c1ccccc1  class 0
13           O=C1O[C@H]([C@@H](O)CO)C(O)=C1O  class 0
14             O=C(O)c1ccccc1C(=O)OCc1ccccc1  class 0
15                                 Oc1ccccc1  class 0
16                 CCCCCCCC[Si](OCC)(OCC)OCC  class 0
17  NCc1cccc(C2CCN(C(=O)c3ccc(C#Cc4ccccc4F)o3)CC2)c1  class 1
18  O=C(O)Cn1c(=O)n(Cc2ccc(Br)cc2F)c(=O)c2ccc(Cl)cc21  class 0
19  CC(C)(O)c1ccc(CNC(=O)c2cccnc2Oc2ccc3nonc3c2)cc1  class 0
20            Cc1c2ccccc2c(C)c2c1ccc1ccccc12  class 1
21                             CCCCCCCCCCCCO  class 1
22         CC(O)CC(C)(C)O (stereo not given)  class 0
23                           Oc1ccc2ccccc2c1  class 0
24           CCCCCCCCOC(=O)c1cc(O)c(O)c(O)c1  class 1
25    O=C(O)Cc1cc(I)c(Oc2ccc(O)c(I)c2)c(I)c1  class 0
26                          O=C=NCCCCCCN=C=O  class 0
27                          c1ccc2n[nH]nc2c1  class 0
28  Cc1oc2c(NC(=O)c3c(Cl)cccc3Cl)cccc2c1C(C)(C)O  class 0
29   COCC(C)OCC(C)OCC(C)O (stereo not given)  class 0
30                   CCCCCCCCCCCC[N+](C)(C)C  class 1
31    Clc1ccccc1C(c1ccccc1)(c1ccccc1)n1ccnc1  class 1
32                              CCCCCCCCCCCO  class 0
33  CN(C)c1ccc(C(=C2C=CC(=[N+](C)C)C=C2)c2ccc(N(C)C)cc2)cc1  class 1
34  O=C1c2ccccc2C(=O)N1CCc1noc(-c2ccc(CN3CCCCCC3)s2)n1  class 0
